Biological target: UniProtKB P29466
Sequence (P29466 120-297 limits assumed): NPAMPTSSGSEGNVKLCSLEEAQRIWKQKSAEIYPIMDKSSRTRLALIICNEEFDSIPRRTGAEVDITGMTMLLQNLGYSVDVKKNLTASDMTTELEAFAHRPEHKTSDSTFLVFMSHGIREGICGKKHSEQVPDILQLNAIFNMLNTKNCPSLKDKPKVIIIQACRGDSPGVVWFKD
Sequence (P29466 317-404 limits assumed): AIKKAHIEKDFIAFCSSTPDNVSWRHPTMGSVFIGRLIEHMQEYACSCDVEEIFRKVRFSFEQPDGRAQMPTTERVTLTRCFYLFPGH
Experiment: Enzyme assay with UV-visible substrate (visible ICE assay, Succinyl-Tyr-Val-Ala-Asp-pNitroanilide)
Assay type: biochemical
Details: Table 5
Measured Parameter: Ki (nM)
Numeric answer only, unit nM assumed.

Which measured Ki belongs to CN(C)c1cccc(C(=O)N[C@H]2CCC(=O)N3CCC[C@@H](C(=O)N[C@H](C=O)CC(=O)O)N3C2=O)c1 , tested on UniProtKB P29466? 5

So what Ki did CC(=O)Nc1ccc(C(=O)N[C@H]2CN(C(C)=O)c3ccccc3N(CC(=O)N[C@H](C=O)CC(=O)O)C2=O)cc1 get with UniProtKB P29466? 43

Which Ki is reported with UniProtKB P29466 for this entry: N[C@H]1CCC(=O)N2CCC[C@@H](C(=O)N[C@H](C=O)CC(=O)O)N2C1=O ? 7000

# returns recorded Ki (system: UniProtKB P29466) for O=C[C@H](CCC(=O)O)NC(=O)[C@@H]1CCCN2C(=O)CC[C@H](NC(=O)c3ccccc3)C(=O)N12 [Compound 235e] 510
